molecular target: human Nav1.7 (Homo sapiens (Human), UniProt Q15858); assay: Nav 1.7 In Vitro PX Assay (PatchXpress whole cell voltage clamp); conditions: in-vitro Nav 1.7 PX data
Sequence (Q15858 whole entry): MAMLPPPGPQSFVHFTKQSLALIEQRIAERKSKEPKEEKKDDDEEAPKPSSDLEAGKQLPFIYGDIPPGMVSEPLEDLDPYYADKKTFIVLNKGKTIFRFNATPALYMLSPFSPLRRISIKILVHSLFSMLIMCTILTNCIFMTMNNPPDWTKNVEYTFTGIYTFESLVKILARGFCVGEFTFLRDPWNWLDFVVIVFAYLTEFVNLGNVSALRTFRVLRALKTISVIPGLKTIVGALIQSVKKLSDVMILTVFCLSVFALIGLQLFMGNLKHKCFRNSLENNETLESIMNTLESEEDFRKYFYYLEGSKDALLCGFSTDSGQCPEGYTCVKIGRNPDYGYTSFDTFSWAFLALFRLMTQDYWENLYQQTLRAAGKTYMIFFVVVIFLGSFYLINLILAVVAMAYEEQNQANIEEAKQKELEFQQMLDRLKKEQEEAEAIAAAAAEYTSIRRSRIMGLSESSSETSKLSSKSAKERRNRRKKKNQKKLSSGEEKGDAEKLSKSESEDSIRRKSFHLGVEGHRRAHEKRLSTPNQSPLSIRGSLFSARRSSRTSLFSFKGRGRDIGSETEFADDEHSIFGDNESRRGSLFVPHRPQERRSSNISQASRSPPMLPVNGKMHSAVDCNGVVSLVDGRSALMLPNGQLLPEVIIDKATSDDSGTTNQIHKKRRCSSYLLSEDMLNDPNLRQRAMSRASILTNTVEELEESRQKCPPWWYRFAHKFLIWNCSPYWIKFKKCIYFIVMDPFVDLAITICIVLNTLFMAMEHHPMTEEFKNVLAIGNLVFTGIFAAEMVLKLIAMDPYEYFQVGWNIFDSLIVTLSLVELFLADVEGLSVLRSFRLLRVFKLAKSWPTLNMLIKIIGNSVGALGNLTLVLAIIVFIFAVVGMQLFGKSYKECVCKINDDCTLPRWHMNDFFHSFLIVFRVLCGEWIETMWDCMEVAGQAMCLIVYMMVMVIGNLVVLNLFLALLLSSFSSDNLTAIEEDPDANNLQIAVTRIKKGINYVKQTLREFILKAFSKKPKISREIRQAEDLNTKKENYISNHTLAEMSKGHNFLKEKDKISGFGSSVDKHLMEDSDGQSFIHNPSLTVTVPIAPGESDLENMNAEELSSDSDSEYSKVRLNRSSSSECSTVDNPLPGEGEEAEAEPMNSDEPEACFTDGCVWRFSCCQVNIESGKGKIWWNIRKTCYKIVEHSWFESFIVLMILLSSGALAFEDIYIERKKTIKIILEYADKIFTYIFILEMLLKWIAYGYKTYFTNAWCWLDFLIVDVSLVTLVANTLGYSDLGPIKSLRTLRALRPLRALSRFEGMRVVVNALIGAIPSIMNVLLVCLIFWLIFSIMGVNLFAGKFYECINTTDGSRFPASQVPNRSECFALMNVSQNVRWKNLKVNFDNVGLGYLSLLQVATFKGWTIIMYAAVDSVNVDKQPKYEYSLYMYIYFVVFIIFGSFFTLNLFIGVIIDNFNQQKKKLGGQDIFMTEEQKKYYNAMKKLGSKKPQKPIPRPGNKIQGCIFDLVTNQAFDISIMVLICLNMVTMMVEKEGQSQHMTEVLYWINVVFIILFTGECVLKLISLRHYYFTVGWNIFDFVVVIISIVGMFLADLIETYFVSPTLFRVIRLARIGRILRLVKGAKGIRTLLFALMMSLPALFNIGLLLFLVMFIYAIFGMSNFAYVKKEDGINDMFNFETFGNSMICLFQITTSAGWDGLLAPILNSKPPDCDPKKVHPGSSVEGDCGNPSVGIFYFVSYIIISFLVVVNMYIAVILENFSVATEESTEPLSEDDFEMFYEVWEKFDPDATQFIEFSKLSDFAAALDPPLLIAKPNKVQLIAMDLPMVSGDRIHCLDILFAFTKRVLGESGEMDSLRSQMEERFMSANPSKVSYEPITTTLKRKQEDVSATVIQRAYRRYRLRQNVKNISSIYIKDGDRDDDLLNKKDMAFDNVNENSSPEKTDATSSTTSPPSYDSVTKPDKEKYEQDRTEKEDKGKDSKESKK

# compound, study.system, IC50 (nM)
measured = [
    ("CNC(=O)N(c1ccc(S(=O)(=O)Nc2ncccn2)cn1)c1cc(Cl)c(-c2ccc(Cl)c(OC)c2)cc1OC [Example 1-77]", "human Nav1.7 (Homo sapiens (Human), UniProt Q15858)", 70),
    ("CNC(=O)N(c1ccc(S(=O)(=O)Nc2ccon2)cn1)c1cc(F)c(-c2ccc(F)c(OC(F)(F)F)c2)cc1OC [Example 1-27]", "human Nav1.7 (Homo sapiens (Human), UniProt Q15858)", 20),
    ("CNC(=O)N(c1ccc(S(=O)(=O)Nc2ncccn2)cn1)c1cc(Cl)c(-c2ccc(F)c(F)c2)cc1OC [Example 1-76]", "human Nav1.7 (Homo sapiens (Human), UniProt Q15858)", 116),
    ("CNC(=O)N(c1ccc(S(=O)(=O)Nc2ccon2)cn1)c1cc(Cl)c(-c2ccc(C(F)(F)F)cc2)cc1OC [Example 1-45]", "human Nav1.7 (Homo sapiens (Human), UniProt Q15858)", 65),
]

###

This section presents compounds with their documented pIC50 values.
target: human Nav1.7 (Homo sapiens (Human)); assay: Nav 1.7 In Vitro PX Assay (PatchXpress whole cell voltage clamp); details: in-vitro Nav 1.7 PX data
pIC50: −log10 of the molar value.

# compound, pIC50
data = [
    ("CNC(=O)N(c1ccc(S(=O)(=O)Nc2ccon2)cn1)c1cc(Cl)c(-c2ccc(Cl)c(OC)c2)cc1OC [Example 1-33]", 7.37),
    ("CNC(=O)N(c1ccc(S(=O)(=O)Nc2ccon2)cn1)c1cc(Cl)c(-c2ccc(C)c(Cl)c2)cc1OC [Example 1-61]", 7.70),
    ("CNC(=O)N(c1ccc(S(=O)(=O)Nc2ccncn2)cn1)c1cc(Cl)c(-c2ccc(F)c(OCC(F)(F)F)c2)cc1OC [Example 3-6]", 7.29),
    ("CNC(=O)N(c1ccc(S(=O)(=O)Nc2ncco2)cn1)c1cc(F)c(-c2ccc(F)c(OC(F)(F)F)c2)cc1OC [Example 3-14]", 7.77),
    ("CNC(=O)N(c1ccc(S(=O)(=O)Nc2ncccn2)cn1)c1cc(F)c(-c2ccc(Cl)c(C(F)(F)F)c2)cc1OC [Example 1-89]", 7.35),
    ("CNC(=O)N(c1ccc(S(=O)(=O)Nc2ccon2)cn1)c1cc(Cl)c(-c2cc(OC(F)(F)F)ccc2OC)cc1OC [Example 1-56]", 7.72),
    ("CNC(=O)N(c1ccc(S(=O)(=O)Nc2ccon2)cn1)c1cc(-c2cccc(F)c2)ccc1OC [Example 4-3]", 5.62),
    ("CNC(=O)N(c1ccc(S(=O)(=O)Nc2ccon2)cn1)c1cc(Cl)c(-c2cccc(C3CC3)c2)cc1OC [Example 1-38]", 7.68),
]

###

Target: human Nav1.7 (Homo sapiens (Human))
Assay: Nav 1.7 In Vitro PX Assay (PatchXpress whole cell voltage clamp)
Conditions: in-vitro Nav 1.7 PX data
Method: HEK 293 cells stably transfected with human Nav1.7 were recorded in whole cell voltage clamp mode with the PatchXpress automated electrophysiology system (Molecular Devices, LLC, Sunnyvale, Calif.). Compound effects were measured on a partially inactivated state of the sodium channel. Cells were clamped to a holding potential yielding 20 to 50% inactivation. […] Peak sodium current was measured at the end of the compound addition period to determine percent inhibition. […]
Rule for this label: criterion met means IC50 is less than 50 nM; criterion not met means IC50 is at least 50 nM.

# compound, label.value
measured = [
    ("CNC(=O)N(c1ccc(S(=O)(=O)Nc2ccon2)cn1)c1cc(-c2cccc(C(F)(F)F)c2)ccc1OC [Example 4-2]", "criterion not met"),
    ("CNC(=O)N(c1ccc(S(=O)(=O)Nc2ccon2)cn1)c1cc(Cl)c(-c2ccnc(C(F)(F)F)c2)cc1OC [Example 1-43]", "criterion not met"),
    ("CNC(=O)N(c1ccc(S(=O)(=O)Nc2ncccn2)cn1)c1ccc(-c2ccc(F)c(OC(F)(F)F)c2)cc1OC [Example 2-7]", "criterion met"),
    ("CNC(=O)N(c1ccc(S(=O)(=O)Nc2ncccn2)cn1)c1cc(F)c(-c2ccc(F)c(Cl)c2)cc1OC [Example 2-1]", "criterion met"),
    ("CNC(=O)N(c1ccc(S(=O)(=O)Nc2ccon2)cn1)c1cc(-c2ccc(C)c(Cl)c2)ccc1OC [Example 4-5]", "criterion not met"),
    ("CNC(=O)N(c1ccc(S(=O)(=O)Nc2ccon2)cn1)c1cc(-c2cc(Cl)cc(OC)c2)ccc1OC [Example 4-1]", "criterion not met"),
    ("CNC(=O)N(c1ccc(S(=O)(=O)Nc2ncccn2)cn1)c1cc(Cl)c(-c2cc(Cl)cc(C#N)c2)cc1OC [Example 1-78]", "criterion not met"),
    ("CNC(=O)N(c1ccc(S(=O)(=O)Nc2ccon2)cn1)c1cc(F)c(-c2cccc(C3CC3)c2)cc1OC [Example 1-13]", "criterion met"),
    ("CNC(=O)N(c1ccc(S(=O)(=O)Nc2nocc2C)cn1)c1cc(F)c(-c2ccc(F)c(C(F)(F)F)c2)cc1OC [Example 2-13]", "criterion not met"),
    ("CNC(=O)N(c1ccc(S(=O)(=O)Nc2ncco2)cn1)c1cc(Cl)c(-c2ccc(F)c(OCC(F)(F)F)c2)cc1OC [Example 3-4]", "criterion not met"),
    ("CCCCCCCCCCCCCCc1cc(OC)c(N(C(=O)NC)c2ccc(S(=O)(=O)Nc3ncccn3)cn2)cc1F [Example 2-11]", "criterion met"),
    ("CNC(=O)N(c1ccc(S(=O)(=O)Nc2ncccn2)cn1)c1cc(F)c(-c2cccc(C(F)(F)F)c2)cc1OC [Example 1-81]", "criterion not met"),
    ("CNC(=O)N(c1ccc(S(=O)(=O)Nc2ncccn2)cn1)c1cc(F)c(-c2cc(F)c(F)c(F)c2)cc1OC [Example 1-86]", "criterion not met"),
    ("CNC(=O)N(c1ccc(S(=O)(=O)Nc2ccon2)cn1)c1cc(Cl)c(C2CC2)cc1OC [Example 1-59]", "criterion not met"),
]

###

biological target: human Nav1.7 (Homo sapiens (Human)); assay: Nav 1.7 In Vitro PX Assay (PatchXpress whole cell voltage clamp); settings: in-vitro Nav 1.7 PX data
Quick rule for you: IC50 under 30 nM gets y, anything else gets n.

# molecule, label.value
rows = [
    ("CNC(=O)N(c1ccc(S(=O)(=O)Nc2ncccn2)cn1)c1cc(Cl)c(-c2ccc(F)c(OC(F)(F)F)c2)cc1OC", "y"),
    ("CNC(=O)N(c1ccc(S(=O)(=O)Nc2ccon2)cn1)c1cc(F)c(-c2cc(OC)c(F)c(OC)c2)cc1OC", "n"),
    ("CNC(=O)N(c1ccc(S(=O)(=O)Nc2cccc(F)n2)cn1)c1cc(Cl)c(-c2ccc(F)c(OCC(F)(F)F)c2)cc1OC", "n"),
    ("CNC(=O)N(c1ccc(S(=O)(=O)Nc2ccon2)cn1)c1cc(Cl)c(-c2ccc(F)c(Cl)c2)cc1OC", "y"),
    ("CNC(=O)N(c1ccc(S(=O)(=O)Nc2ccon2)cn1)c1cc(Cl)c(-c2cc(F)c(F)c(F)c2)cc1OC", "n"),
    ("CNC(=O)N(c1ccc(S(=O)(=O)Nc2ccon2)cn1)c1cc(F)c(-c2cccc(OC(F)(F)F)c2)cc1OC", "y"),
    ("CNC(=O)N(c1ccc(S(=O)(=O)Nc2cccc(F)n2)cn1)c1cc(Cl)c(-c2ccc(F)c(C(F)(F)F)c2)cc1OC", "n"),
    ("CNC(=O)N(c1ccc(S(=O)(=O)Nc2ccon2)cn1)c1cc(Cl)c(-c2cc(OC)cc(C(F)(F)F)c2)cc1OC", "y"),
    ("CNC(=O)N(c1ccc(S(=O)(=O)Nc2ccon2)cn1)c1cc(F)c(-c2cc(OC)cc(OC(F)(F)F)c2)cc1OC", "y"),
    ("CNC(=O)N(c1ccc(S(=O)(=O)Nc2ccon2)cn1)c1cc(F)c(-c2cc(C)cc(F)c2)cc1OC", "n"),
    ("CNC(=O)N(c1ccc(S(=O)(=O)Nc2ccon2)cn1)c1cc(Cl)c(-c2cc(OC)nc(C(F)(F)F)c2)cc1OC", "y"),
    ("CNC(=O)N(c1ccc(S(=O)(=O)Nc2cccnn2)cn1)c1cc(F)c(-c2ccc(F)c(OC(F)(F)F)c2)cc1OC", "y"),
    ("CNC(=O)N(c1ccc(S(=O)(=O)Nc2ncccn2)cn1)c1cc(F)c(-c2ccc(F)c(C(F)F)c2)cc1OC", "y"),
    ("CNC(=O)N(c1ccc(S(=O)(=O)Nc2ccon2)cn1)c1cc(-c2cccc(F)c2)c(Cl)cc1OC", "n"),
]
